Tested on: Sprague-Dawley rats
assay: Pharmacological effect and adverse reactions under the equivalent dose (2ED50), Group D compounds
Format: in vivo
test-parameters: equivalent dose (2 × ED50), number of rats of n = 8
reported-metric: Adverse reaction: Tremor
Numbers only.

[[record]]
molecule = "CCOC(OC)(OCC)C(=O)c1cncn1[C@H](C)c1ccccc1 [Compound D79]"
meas_value = 1

[[record]]
molecule = "CCOC(=O)c1cncn1C(C)c1ccccc1 (stereo not drawn) [Etomidate, reference compound]"
meas_value = 3


// next item, Adverse reaction: Tremor requested
Problem: Report Adverse reaction: Tremor, nothing else, for this molecule: COC(OC)C(=O)c1cncn1[C@H](C)c1ccccc1 [Compound D87]
Result: 0
